study-system: Peroxisome proliferator-activated receptor gamma (Homo sapiens)
Sequence (P37231 whole entry, the tested form may be a part): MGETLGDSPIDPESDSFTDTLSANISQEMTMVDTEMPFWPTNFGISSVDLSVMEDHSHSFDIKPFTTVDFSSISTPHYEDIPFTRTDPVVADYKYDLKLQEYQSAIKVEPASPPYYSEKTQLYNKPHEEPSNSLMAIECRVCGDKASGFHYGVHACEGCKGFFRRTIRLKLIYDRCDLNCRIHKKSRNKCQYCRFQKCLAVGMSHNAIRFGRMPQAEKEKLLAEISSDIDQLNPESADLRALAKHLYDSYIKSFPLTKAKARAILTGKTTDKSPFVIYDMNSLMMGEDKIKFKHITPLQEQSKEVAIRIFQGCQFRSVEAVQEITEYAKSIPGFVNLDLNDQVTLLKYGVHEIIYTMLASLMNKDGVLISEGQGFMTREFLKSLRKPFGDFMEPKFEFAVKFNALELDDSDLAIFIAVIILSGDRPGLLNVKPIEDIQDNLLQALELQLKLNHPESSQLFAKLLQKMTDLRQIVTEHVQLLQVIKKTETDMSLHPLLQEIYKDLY
protocol-details: Agonist activity at yeast Gal4-fused human PPARgamma transfected in human HepG2 cells assessed as transactivation by measuring beta-galactosidase activity incubated for 20 hrs by luminometry
pEC50: −log10 of the molar value.
readout-type: pEC50

a: CC(C)(C)OC(=O)NC(COCc1ccc(C(=O)c2ccccc2)cc1)C(=O)O (stereo not drawn)
b: O=C(NC(CSCc1ccc(C(=O)c2ccccc2)cc1)C(=O)O)OCc1ccccc1 (stereo not drawn)
c: CC(C)(C)OC(=O)NC(CSCc1ccc(C(=O)c2ccc(Cl)cc2)cc1)C(=O)O (stereo not drawn)
Q. Give the ascending ranking of the items by reported pEC50. Your reply should list the labels following the order given in the request.
A. a, b, c
